Each entry below carries its recorded IC50.
target entity: DENV2 protease (Dengue virus type 2)
Construct: The active site of the dengue protease is in the N-terminal part of NS3
Sequence (P14340 1398-1437, one chain of several): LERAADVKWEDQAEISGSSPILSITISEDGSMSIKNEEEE
measurement description: DENV2 protease biochemical assay
Residues, ends and D or L forms follow the SMILES beside them.
A number alone suffices; assume nM.

A selection of reference data follows.
CCCCCCCCCCCCCCCCNC(=O)[C@H](CCCCN)NC(=O)[C@H](CCCCN)NC(=O)[C@H](CCCCN)NC(=O)[C@H](Cc1ccccc1)NC(=O)CCCCCCCCCCCCCCC [C16-FKKK-C16] (HELM PEPTIDE1{[CCCCCCCCCCCCCCCC(=O)[*:2]].F.K.K.K.[CCCCCCCCCCCCCCCCN[*:1]]}$$$$V2.0)	200
CCCCCCCCCCCCCCCCNC(=O)[C@H](CCCCN)NC(=O)[C@H](CCC(N)=O)NC(=O)[C@H](CCCNC(=N)N)NC(=O)[C@H](C)NC(=O)CCCCCCCCCCCCCCC [C16-ARQK-C16] (HELM PEPTIDE1{[CCCCCCCCCCCCCCCC(=O)[*:2]].A.R.Q.K.[CCCCCCCCCCCCCCCCN[*:1]]}$$$$V2.0)	300
CCCCCCCCCCCCCCCCNC(=O)[C@H](CO)NC(=O)[C@H](CCCCN)NC(=O)[C@H](C)NC(=O)[C@H](CCCCN)NC(=O)[C@H](CC(C)C)NC(=O)CCCCCCCCCCCCCCC [C16-LKAKS-C16] (HELM PEPTIDE1{[CCCCCCCCCCCCCCCC(=O)[*:2]].L.K.A.K.S.[CCCCCCCCCCCCCCCCN[*:1]]}$$$$V2.0)	300

Exercise: Would you kindly share the measured IC50 for CCCCCCCCCCCCCCCCNC(=O)[C@H](CCCCN)NC(=O)[C@H](CCC(N)=O)NC(=O)[C@H](C)NC(=O)[C@H](CCCNC(=N)N)NC(=O)CCCCCCCCCCCCCCC [C16-RAQK-C16] (HELM PEPTIDE1{[CCCCCCCCCCCCCCCC(=O)[*:2]].R.A.Q.K.[CCCCCCCCCCCCCCCCN[*:1]]}$$$$V2.0) ?
Key: 600

---

target entity: dengue 2 protease (Dengue virus type 2)
Construct: The active site of the dengue protease is in the N-terminal part of NS3
measurement description: Dengue 2 protease inhibition, hydrolysis of Z-RR-MCA
Residues, ends and D or L forms follow the SMILES beside them.
endpoint: pKi
Units for pKi: none; it is -log10 of a concentration expressed in mol/L.

CCCCCCCCCCCCCCCCNC(=O)[C@H](CCCCN)NC(=O)CNC(=O)CNC(=O)[C@H](CCCCN)NC(=O)CCCCCCCCCCCCCCC [C16-KGGK-C16, C15H31CO-KGGK-NH—C16H33] (HELM PEPTIDE1{[CCCCCCCCCCCCCCCC(=O)[*:2]].K.G.G.K.[CCCCCCCCCCCCCCCCN[*:1]]}$$$$V2.0)	5.24
CCCCCCCCCCCCCCCCNC(=O)[C@H](CCCCN)NC(=O)[C@H](C)NC(=O)[C@H](C)NC(=O)[C@H](C)NC(=O)[C@H](C)NC(=O)[C@H](CCCCN)NC(=O)CCCCCCCCCCCCCCC [C16-KAAAAK-C16] (HELM PEPTIDE1{[CCCCCCCCCCCCCCCC(=O)[*:2]].K.A.A.A.A.K.[CCCCCCCCCCCCCCCCN[*:1]]}$$$$V2.0)	5.62
CCCCCCCCCCCCNC(=O)[C@H](CCCCN)NC(=O)[C@H](C)NC(=O)[C@H](C)NC(=O)[C@H](C)NC(=O)[C@H](CCCCN)NC(=O)CCCCCCCCCCC [C12KA3KC12] (HELM PEPTIDE1{[CCCCCCCCCCCC(=O)[*:2]].K.A.A.A.K.[CCCCCCCCCCCCN[*:1]]}$$$$V2.0)	5.27

Please find the next compound below.
Exercise: Would you kindly share the measured pKi for CCCCCCCCCCCCCCCCNC(=O)[C@H](CCCNC(=N)N)NC(=O)[C@H](CCCNC(=N)N)NC(=O)CCCCCCCCCCCCCCC [C16RRC16, n-C15H31C(O)-Arg-Arg-(n-C16H33).2TFA] ?
Key: 6.10

---

target entity: dengue 2 protease (Dengue virus type 2, UniProt P14340)
Construct: The active site of the dengue protease is in the N-terminal part of NS3
Sequence (P14340 1476-1653): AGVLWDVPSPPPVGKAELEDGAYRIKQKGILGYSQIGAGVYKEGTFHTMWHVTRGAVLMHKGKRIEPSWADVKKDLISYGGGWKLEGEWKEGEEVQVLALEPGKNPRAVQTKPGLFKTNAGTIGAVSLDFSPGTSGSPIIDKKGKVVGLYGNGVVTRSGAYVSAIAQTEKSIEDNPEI
measurement description: Dengue 2 protease inhibition, hydrolysis of Z-RR-MCA
Assay type: biochemical, dengue 2 virus
measurement parameters: 20 μM inhibitor, 36.5° C.
Residues, ends and D or L forms follow the SMILES beside them.
endpoint: activity at 20 µM (%)
A number alone suffices; assume %.

A selection of reference data follows.
CCCCCCCCCCCCCCCCNC(=O)[C@H](CCCCN)NC(=O)CNC(=O)CNC(=O)CNC(=O)[C@H](CCCCN)NC(=O)CCCCCCCCCCCCCCC [C16-KGGGK-C16, C15H31CO-KGGGK-NH—C16H33] (HELM PEPTIDE1{[CCCCCCCCCCCCCCCC(=O)[*:2]].K.G.G.G.K.[CCCCCCCCCCCCCCCCN[*:1]]}$$$$V2.0)	65
CCCCCCCCCCCCCCCCNC(=O)[C@H](CCCCN)NC(=O)CNC(=O)CNC(=O)CNC(=O)CNC(=O)[C@H](CCCCN)NC(=O)CCCCCCCCCCCCCCC [C16KG4KC16] (HELM PEPTIDE1{[CCCCCCCCCCCCCCCC(=O)[*:2]].K.G.G.G.G.K.[CCCCCCCCCCCCCCCCN[*:1]]}$$$$V2.0)	60
CCCCCCCCCCCCCCCCNC(=O)[C@H](CCCCN)NC(=O)CNC(=O)CNC(=O)[C@H](CCCCN)NC(=O)CCCCCCCCCCCCCCC [C16-KGGK-C16, C15H31CO-KGGK-NH—C16H33] (HELM PEPTIDE1{[CCCCCCCCCCCCCCCC(=O)[*:2]].K.G.G.K.[CCCCCCCCCCCCCCCCN[*:1]]}$$$$V2.0)	70

Exercise: Would you kindly share the measured activity at 20 µM for CCCCCCCCCCCCCCCCNC(=O)[C@H](CCCCN)NC(=O)[C@H](CCCCN)NC(=O)CCCCCCCCCCCCCCC [C16-KK-C16, C15H31CO-KK-NH—C16H33] ?
Key: 58

Exercise: Would you kindly share the measured activity at 20 µM for CCCCCCCCCCCCCCCCNC(=O)[C@H](CCCCN)NC(=O)CNC(=O)[C@H](CCCCN)NC(=O)CCCCCCCCCCCCCCC [C16-KGK-C16, C15H31CO-KGK-NH—C16H33] ?
Key: 29

---

Each entry below carries its recorded % recovery in presence of Triton.
target entity: dengue 2 protease (Dengue virus type 2, UniProt P14340)
Construct: The active site of the dengue protease is in the N-terminal part of NS3
measurement description: Dengue 2 protease inhibition in presence of Triton X-100 (detergent test, Nature Protocol)
Assay type: biochemical, dengue 2 virus
measurement parameters: 20 μM of inhibitor, 0.05% Triton X-100
Residues, ends and D or L forms follow the SMILES beside them.
A number alone suffices; assume %.

A selection of reference data follows.
CCCCCCCCCCCCCCCCNC(=O)[C@H](CCCNC(=N)N)NC(=O)[C@H](CCCNC(=N)N)NC(=O)CCCCCCCCCCCCCCC [C16RRC16, n-C15H31C(O)-Arg-Arg-(n-C16H33).2TFA]	74
CCCCCCCCCCCCNC(=O)[C@H](CCCCN)NC(=O)[C@H](C)NC(=O)[C@H](C)NC(=O)[C@H](CCCCN)NC(=O)CCCCCCCCCCC [C12KA2KC12] (HELM PEPTIDE1{[CCCCCCCCCCCC(=O)[*:2]].K.A.A.K.[CCCCCCCCCCCCN[*:1]]}$$$$V2.0)	95
CCCCCCCCCCCCCCCCNC(=O)[C@H](CCCCN)NC(=O)[C@H](C)NC(=O)[C@H](C)NC(=O)[C@H](C)NC(=O)[C@H](C)NC(=O)[C@H](CCCCN)NC(=O)CCCCCCCCCCCCCCC [C16-KAAAAK-C16] (HELM PEPTIDE1{[CCCCCCCCCCCCCCCC(=O)[*:2]].K.A.A.A.A.K.[CCCCCCCCCCCCCCCCN[*:1]]}$$$$V2.0)	67

Please find the next molecule below.
Exercise: Would you kindly share the measured % recovery in presence of Triton for CCCCCCCCCCCCCCCCNC(=O)[C@H](CCCNC(=N)N)NC(=O)[C@H](C)NC(=O)[C@H](C)NC(=O)[C@H](C)NC(=O)[C@H](C)NC(=O)[C@H](CCCNC(=N)N)NC(=O)CCCCCCCCCCCCCCC [C16RA4RC16] (HELM PEPTIDE1{[CCCCCCCCCCCCCCCC(=O)[*:2]].R.A.A.A.A.R.[CCCCCCCCCCCCCCCCN[*:1]]}$$$$V2.0) ?
Key: 68
